# Tested on: bovine EC (BCE)
# assay_method_text: In vitro angiogenesis assay, collagen gel-based sprout formation
# Assay type: cell-based
# condition: BCE on cytodex-3 beads in collagen gel, 20 ng/mL bFGF, 24 hours; * = significant inhibition (p < 0.03)
measured_endpoint: % Sprouting

> print(dat)
                            substance  reported.value
1          QMKL-[DBF]-IIVKLND [4DBF7]         99 ± 5%
2        SVQMKL-[DBF]-IIVKLND [6DBF7]       60 ± 12%*
3     IKLSVQMKL-[DBF]-IIVKLND [9DBF7]       76 ± 40%*
4   NIKLSVQMKL-[DBF]-IIVKLND [10DBF7]     57 ± 17.5%*
5           MKL-[DBF]-IIVKLND [3DBF7]        84 ± 30%
6  ANIKLSVQMKL-[DBF]-IIVKLND [11DBF7]       23 ± 10%*
7             L-[DBF]-IIVKLND [1DBF7]               —

The values you see were collected from patent US7339023B2.
